// data source = ChEMBL document CHEMBL5380818

- Assay Comment: Volume of distribution at steady state in dog plasma 0.3 mg/kg, iv measured 0.033 to 24 hrs by LC-MS/MS analysis
- Assay type: ADME, organism-based, Canis lupus familiaris
- Stated Conditions: time 0.033-24 hrs, read-out: Vdss

Query Smiles | Unit Label | Vd
CNc1cc[n+](CCNC(=O)c2ccn3c(-c4c(C)noc4C)cnc3c2)cc1.[Cl-] | L/kg | 0.6

* * *

- Assay Comment: Mutagenecity in Salmonella typhimurium in presence of s9 fraction by Ames test
- Format: toxicity, subcellular
- Stated Conditions: salmonella enterica subsp. enterica serovar typhimurium

Query Smiles | Activity
CNc1cc[n+](CC(=O)Nc2ccc3c(c2)ncn3-c2c(C)noc2C)cc1.O=C[O-] | Toxic
Cc1noc(C)c1-n1cnc2cc(N)ccc21 | Toxic
CNc1cc[n+](CCNC(=O)c2ccc3c(c2)ncn3-c2c(C)noc2C)cc1.O=C[O-] | Non-Toxic
CNc1ccncc1 | Non-Toxic
CNc1cc[n+](CCNC(=O)c2ccn3c(-c4c(C)noc4C)cnc3c2)cc1.[Cl-] | Non-Toxic
Cc1noc(C)c1N | Non-Toxic
CNc1cc[n+](CC(=O)Nc2cnc3c(c2)ncn3-c2ccccc2OC)cc1.O=C[O-] | Toxic
CNc1cc[n+](CC(=O)Nc2cccc(C)c2)cc1.O=C[O-] | Non-Toxic

* * *

- Assay Comment: Solubility of the compound in pH 7 shaken for 24 hrs
- Assay type: physicochemical
- Stated Conditions: buffer

Query Smiles | solubility thermodynamic at 24 h / µg/mL
COc1ccccc1-n1cnc2cc(NC(=O)CCc3ccccn3)ccc21 | 20
COc1ccccc1-n1cnc2cc(NC(C)=O)ccc21 | 300

* * *

- Measured On: Alpha-2B adrenergic receptor (Homo sapiens, UniProt P18089)
- Sequence (P18089 whole entry): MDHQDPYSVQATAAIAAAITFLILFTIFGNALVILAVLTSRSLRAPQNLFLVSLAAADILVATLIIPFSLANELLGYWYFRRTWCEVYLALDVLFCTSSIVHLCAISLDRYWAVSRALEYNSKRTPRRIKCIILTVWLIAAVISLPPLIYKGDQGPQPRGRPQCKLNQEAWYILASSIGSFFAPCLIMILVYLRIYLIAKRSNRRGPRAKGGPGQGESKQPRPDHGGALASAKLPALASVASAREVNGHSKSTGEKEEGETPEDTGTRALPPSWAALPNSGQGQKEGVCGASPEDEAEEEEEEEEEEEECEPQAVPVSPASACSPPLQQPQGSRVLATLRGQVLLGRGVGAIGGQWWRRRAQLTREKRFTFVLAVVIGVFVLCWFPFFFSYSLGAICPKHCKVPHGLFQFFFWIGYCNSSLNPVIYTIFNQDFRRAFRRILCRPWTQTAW
- Assay Comment: Antagonist activity at human recombinant adrenergic alpha2B receptor expressed in CHO cell treated with compound for 5 mins followed by norepinephrine measured for 50 secs by microtitre plate method

Compound | IC50 [µM]
CNc1cc[n+](CC(Nc2ccc3c(c2)ncn3-c2c(C)noc2C)C(F)(F)F)cc1 (racemic) | 7.05

* * *

- Assay Comment: Clearance in dog plasma 0.3 mg/kg, iv measured 0.033 to 24 hrs by LC-MS/MS analysis
- Assay type: ADME, organism-based, Canis lupus familiaris
- Stated Conditions: time 0.033-24 hrs

Query Smiles | clearance, mL/min/kg
CNc1cc[n+](CCNC(=O)c2ccn3c(-c4c(C)noc4C)cnc3c2)cc1.[Cl-] | 26.7
